Molecular target: T1, CD137-hisFc fusion protein (Sino Biological Cat 10041-H03H) (human, UniProt Q07011 24-186)
T1 construct: Bought; also called recombinant human CD137 (fused with human Fc and His tag); not shown: His tag and human Fc
Experiment: BLI Octet, Fab
parameter: log10(koff) (log10 of the value in s⁻¹)
# values: log10(koff), units s⁻¹

Use these answered entries as a reference point.
binder	parameter	meas_value
Fab 5408 (Fab, V domains shown, Fab from E. coli; also called VH36/VL36) VH: EVQLVESGGGLVQPGGSLRLSCAASGYSITSGYHWSWIRQAPGKGLEWVSSISGYGDTTYYADSVKGRFTISRDNSKNTLYLQLNSLRAEDTAVYYCAREGSDTVLGDWFAYWGQGTLVTVSS VL: DIQLTQSPSSLSASVGDRVTITCQASQDIRTYLAWYQQKPGKAPKLLIYDASNLETGVPSRFSGSGSGTDFTLTISSLQPEDFATYYCQQGYSIWTFGQGTKVEIKR	log10(koff)	-2.12
Fab 4139 (Fab, V domains shown, Fab from E. coli; also called VH8/VL8) VH: EVQLVESGGGLVQPGGSLRLSCAASGYTFTGYAIHWVRQAPGKGLEWVSAISGDGGSTYYADSVKGRFTISRDNSKNTLYLQLNSLRAEDTAVYYCARGYRGYFDYWGQGTLVTVSS VL: DIQLTQSPSSLSASVGDRVTITCRASESVTSTYLAWYQQKPGKAPKLLIYDASNLETGVPSRFSGSGSGTDFTLTISSLQPEDFATYYCQQYSDWPPTFGQGTKVEIKR	log10(koff)	-4.09
Fab 7105 (Fab, V domains shown, Fab from E. coli; also called VH51/VL51) VH: EVQLVESGGGLVQPGGSLRLSCAASGFSLSTGGVGVGWIRQAPGKGLEWVSYISGAGSTTYYADSVKGRFTISRDNSKNTLYLQLNSLRAEDTAVYYCAREGSDTVLGDWFAYWGQGTLVTVSS VL: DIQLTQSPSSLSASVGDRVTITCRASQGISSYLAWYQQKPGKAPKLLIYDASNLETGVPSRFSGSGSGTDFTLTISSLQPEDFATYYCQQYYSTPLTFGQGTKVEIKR	log10(koff)	-1.96
Fab 7090 (Fab, V domains shown, Fab from E. coli; also called VH47/VL47) VH: EVQLVESGGGLVQPGGSLRLSCAASGFSLSTGGVGVAWIRQAPGKGLEWVSYISGYGGTTYYADSVKGRFTISRDNSKNTLYLQLNSLRAEDTAVYYCAREGSTAVLGDWFAYWGQGTLVTVSS VL: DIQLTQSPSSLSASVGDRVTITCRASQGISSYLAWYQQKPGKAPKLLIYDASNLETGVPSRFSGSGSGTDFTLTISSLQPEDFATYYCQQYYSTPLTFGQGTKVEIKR	log10(koff)	-1.76
Fab 5409 (Fab, V domains shown, Fab from E. coli; also called VH37/VL37) VH: EVQLVESGGGLVQPGGSLRLSCAASGYSISSGHHWAWIRQAPGKGLEWVSVISGSGSSTYYADSVKGRFTISRDNSKNTLYLQLNSLRAEDTAVYYCAREGSDTVLGDWFAYWGQGTLVTVSS VL: DIQLTQSPSSLSASVGDRVTITCRASQGISSYLAWYQQKPGKAPKLLIYDASNLETGVPSRFSGSGSGTDFTLTISSLQPEDFATYYCQQGYSTWTFGQGTKVEIKR	log10(koff)	-2.37

Switching to the query record.
Suppose we examine the binder Fab 5342 (Fab, V domains shown, Fab from E. coli; also called VH21/VL21) VH: EVQLVESGGGLVQPGGSLRLSCAASGFSLSTGGVAVGWIRQAPGKGLEWLALIDWAGDKSYSTSLKSRLTISRDNSKNTLYLQLNSLRAEDTAVYYCAREGEDAVTGDWFAYWGQGTLVTVSS VL: DIQLTQSPSSLSASVGDRVTITCQASQDIRTYLAWYQQKPGKAPKLLIYDASNRATGIPSRFSGSGSGTDFTLTISSLQPEDFATYYCQQGYSIWTFGQGTKVEIKR ; what log10(koff) value has been reported?
-2.21
